- target: Streptavidin (Streptomyces avidinii)
- experimentalDetails: streptavidin binders on small-molecule microarray, primary screen, artefact control for SMM compound annotation, biophysical, 635/667 nm fluorescence (AID 1147);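 also: signal reflects streptavidin binding to arrayed compounds as a control protein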
- setupConditions: streptavidin binding, higher = more signal
assayMetric: composite z-score
Please reply with the number alone, leaving off any unit.

Worked cases, composite z-score given:
| compound | composite z-score |
| --- | --- |
| C=C(/C(=C/C[C@H](OC(C)=O)c1ccc(OCCO)cc1)c1cnc2ccccc2c1)C(C)C | 0.868 |
| C[N+](C)(C)CCCCCCNC(=O)[C@@H]1C[C@@H]2C(=O)N3CCC[C@H]3C(=O)N2[C@@H]1c1cccc(OCCO)c1 | -1.05 |
| COC(=O)[C@H](C)NC(=O)CCC1CC(OC(=O)NCCc2ccc(F)cc2)CC2(CCCC(COC(=O)NCC(c3ccccc3)c3ccccc3)O2)O1 (stereo not given in full) | 0.688 |

Could you now consider this next compound?
Query: Consider the compound shown here: CCN1C(=O)[C@H]2[C@H]3[C@H](O)[C@H](O)CC(=NO[C@@H]4O[C@H](CO)[C@@H](O)[C@H](O)[C@H]4O)[C@@H]3CC[C@H]2C1=O What is its recorded composite z-score?
Response: -0.933

Entry source: PubChem BioAssay
